system: P. falciparum stage V gametocytes; design: BacTiter-Glo ATP luminescence viability of purified stage V gametocytes in 384-well plates, per cent inhibition versus DMSO; settings: 48 h, 5 µM; inhibitor
Among all 13,000 compounds or so, about 3,200 (25%) showed an effect of 50% or more. The list shows a part of the results.
# binarize % Inhibition: threshold 50% inclusive, high side Met, low side Not met

The following molecules have reported results that may help.
QUERY: Would you say COc1ccc2ncc(Cl)c([C@H](O)CN3CCC(NCc4cc5c(cn4)OCCO5)CC3)c2c1 shows % Inhibition at minimum 50%?
RESULT: Met

QUERY: Threshold query (% Inhibition >= 50%) on COc1ccc2nccc(CCN3CC(O)C(CNCc4ccc5c(n4)NC(=O)CS5)C3)c2n1 (centres unmarked)
RESULT: Not met

QUERY: Entry Cc1ccc2ncc(Cl)c(CCN3CCC(NCc4ccc5c(n4)NC(=O)CS5)CC3)c2n1 : is its % Inhibition no less than 50%?
RESULT: Not met

QUERY: Would you say COc1c(F)ccc2ncc(Cl)c(CCN3CCC(NCc4ccc5c(n4)NC(=O)CS5)CC3)c12 shows % Inhibition at minimum 50%?
RESULT: Met

QUERY: Reported % Inhibition at or above 50%? COc1ccc2ncc(F)c([C@@H](O)CN3CCC(NCc4cc5c(cn4)OCCO5)CC3)c2c1
RESULT: Not met

Continuing:
QUERY: Is reported % Inhibition greater than or equal to 50% here: COc1cc(F)c2ncc(F)c(CCN3C[C@H](CNCc4ccc5c(n4)NC(=O)CS5)[C@H](O)C3)c2c1
RESULT: Met

QUERY: Please indicate if the recorded % Inhibition for Fc1ccc2ncc(Cl)c(CCN3CCC(NCc4cc5c(cn4)OCCO5)CC3)c2c1 meets or exceeds 50%.
RESULT: Met

QUERY: Reported % Inhibition reaches at least 50% for COc1ccc2ncc(F)c(CCN3CC(O)C(CNCc4ccc5c(n4)NC(=O)CS5)C3)c2c1 (centres unmarked) ?
RESULT: Not met

* * *

test system: P. falciparum stage V gametocytes; parameters: BacTiter-Glo ATP luminescence viability of purified stage V gametocytes in 384-well plates, per cent inhibition versus DMSO; conditions: 48 h, 5 µM; inhibitor
About 3,200 (25%) of roughly 13,000 compounds showed an effect of 50% or more. Some of the results follow.
result type: % Inhibition (%)
Write the number in % without appending the unit.

Take a look at these entries with their results.
QUERY: Give recorded % Inhibition. COc1ccc(-c2cc(C(=O)N[C@@H](CC3CCCCC3)C(=O)NCCN3CCCCC3)ccc2O)cc1 [TCMDC-140805]
RESULT: 23

QUERY: # return recorded % Inhibition for entry NC(=O)c1sc(-n2cnc3ccc(C(=O)NCCN4CCOCC4)cc32)cc1OCc1ccccc1C(F)(F)F [TCMDC-135181]
RESULT: -45.79

QUERY: Supply % Inhibition value. Item: NC(=O)c1cc2nc(Nc3ccc(F)cc3)nc(NC3CCC3)c2[nH]1 [TCMDC-137003]
RESULT: -67.45

Lab note: next molecule to report on.
QUERY: Please report the measured % Inhibition for O=C(C=Cc1ccc(Cl)c(Cl)c1)NCCCCCN1CCCC(CCCNS(=O)(=O)c2cccc3cccnc23)C1 (stereo not shown) [TCMDC-139594]
RESULT: 96.79

* * *

system: P. falciparum stage V gametocytes; design: BacTiter-Glo ATP luminescence viability of purified stage V gametocytes in 384-well plates, per cent inhibition versus DMSO; settings: 48 h, 5 µM; inhibitor
Out of some 13,000 compounds screened, about 3,200 (25%) showed an effect of 50% or more. This is one part of the list.
result type: % Inhibition
Be sure to follow the number with its unit.

QUERY: Recall and state the measured % Inhibition for Cc1c(Cl)cccc1S(=O)(=O)Nc1cccc(CCN2CCC(N3CCCCC3)CC2)c1 .
RESULT: 56.09%

Further cases:
QUERY: Provide measured % Inhibition value, entry: CC(C)N1CCC(N(Cc2ccc(-c3ccc(C(F)(F)F)cc3)cc2)C(=O)Cn2c(SCc3cccc(F)c3F)cc(=O)c3c2CCC3)CC1
RESULT: 98.3%

QUERY: Identify the reported % Inhibition for the following entry. O=C(Nc1cccc(CN2CCCN(Cc3ccc(O)cc3)CC2)c1)c1ccc(Br)cc1
RESULT: 15.8%

QUERY: Respond only with % Inhibition recorded for COc1ccc2nccc([C@@H](O)CN3CCC(NCc4ccc5c(n4)NC(=O)CS5)C(F)C3)c2c1 (stereo partly shown)
RESULT: -27.67%

* * *

% Inhibition values for the compounds below.
test system: P. falciparum stage V gametocytes; parameters: BacTiter-Glo ATP luminescence viability of purified stage V gametocytes in 384-well plates, per cent inhibition versus DMSO; settings: 48 h, 5 µM; inhibitor
Among all 13,000 compounds or so, about 3,200 (25%) showed an effect of 50% or more. Some of the results follow.
I only need the number, in %, no unit after it.

QUERY: Provide one value: measured % Inhibition of O=S(=O)(Nc1cc2c(cc1OCCCN1CCCCC1)CCNCC2)c1ccc(-c2ccc(Cl)cc2)cc1
RESULT: 106.2

QUERY: Please give measured % Inhibition of the following entry: CC[C@H]1CN2CC[C@H]1C[C@H]2[C@H](O)c1cc(N2CCCC(C(=O)N(CC)CC)C2)nc2ccc(OC)cc12 (some centres unmarked)
RESULT: 46.24

QUERY: Determine from records and report % Inhibition for Cc1cc(N(C)CCN(C)C)nc(Nc2ccc(Cl)cc2)n1
RESULT: 22.54

QUERY: Supply reported % Inhibition belonging to this compound: CC[C@H]1CN2CC[C@@H]1C[C@H]2[C@H](O)c1cc(N2CCOCC2)nc2ccc(OC)cc12
RESULT: -92.7

QUERY: Return % Inhibition for the following compound: CC[C@H]1CN2CC[C@H]1C[C@H]2[C@H](O)c1cc(N2CCCC2)nc2ccc(OC)cc12
RESULT: -33.27

QUERY: Read the entry CC(C)Oc1cc2c(cc1NS(=O)(=O)c1ccc(-c3ccc(Cl)s3)cc1F)CCN(C)CC2 and write its reported % Inhibition.
RESULT: 18.13

QUERY: Identify measured % Inhibition corresponding to O=C(C1CCN(c2nnnn2-c2ccccc2)CC1)N1CCc2ccccc2C1
RESULT: 26.99

QUERY: Supply reported % Inhibition belonging to this compound: COc1ccc2nccc([C@@H](O)CN3CCC(NCc4ccc5nsnc5c4)CC3)c2c1
RESULT: 4.203

* * *

// reported % Inhibition per item
tested on: P. falciparum stage V gametocytes; design: BacTiter-Glo ATP luminescence viability of purified stage V gametocytes in 384-well plates, per cent inhibition versus DMSO; conditions: 48 h, 5 µM; inhibitor
The whole screen tested about 13,000 compounds, of which about 3,200 (25%) showed an effect of 50% or more. The list shows a part of the results.
I'd appreciate it if you wrote the number followed by its unit.

QUERY: Give recorded % Inhibition. O=C(CN1CCN(S(=O)(=O)C=Cc2ccccc2)CC1)Nc1cc(C(F)(F)F)ccc1Cl
RESULT: -9.823%

QUERY: Item CC(C)(C)OC(=O)Nc1cccc(-c2csc(N=C(N)N)n2)c1 : provide % Inhibition
RESULT: -7.948%

QUERY: In one line, give reported % Inhibition of the entry CCc1c(C)nc2nc(Cc3cccc(F)c3)nn2c1N1CCN(c2ccccn2)CC1 .
RESULT: 5.465%

QUERY: Return % Inhibition (reported value) for this molecule: O=C(N[C@@H](Cc1ccccc1)C(=O)NC1CCCCC1)c1ccc(O)c(-c2ccc(Cl)c(Cl)c2)c1
RESULT: 35.45%

QUERY: Find the measured % Inhibition of Cc1ccc(-n2[nH]c(C)c(N=Nc3cccc(-c4cccc(NC(=O)OC(C)(C)C)c4)c3O)c2=O)cc1C and report it.
RESULT: 81.95%

* * *

test system: P. falciparum stage V gametocytes; set-up: BacTiter-Glo ATP luminescence viability of purified stage V gametocytes in 384-well plates, per cent inhibition versus DMSO; details: 48 h, 5 µM; inhibitor
About 3,200 (25%) of roughly 13,000 compounds showed an effect of 50% or more. The list shows a part of the results.
result type: % Inhibition (%)
Give just the number in %; leave the unit off.

QUERY: Tell us which % Inhibition value is on record for COc1cc(F)c2nccc([C@@H](O)CN3CCC(NCc4ccc5c(n4)NC(=O)CS5)CC3)c2c1 [TCMDC-141566]
RESULT: 6.174

Further cases:
QUERY: Using known records, supply % Inhibition for COc1ccc2nccc([C@@H](O)CN3CCC(c4cc(-c5ccc(Cl)cc5)n[nH]4)CC3)c2n1 [TCMDC-141436]
RESULT: 81.16

QUERY: // Input: CCOC(=O)c1c(CSc2ccccc2)oc2cc(CN(C)C)c(O)c(Cl)c12 [TCMDC-124095] . Output its % Inhibition only.
RESULT: -76.05

QUERY: Report % Inhibition, nothing else, for this compound: COc1ccc2nccc(N(C)CC3(O)CCC(NCc4ccc5c(n4)NC(=O)CS5)CC3)c2n1 (centres unmarked) [TCMDC-134496]
RESULT: 10.91

QUERY: Please give measured % Inhibition of the following entry: COc1ccc2nccc(NCC3(O)CCC(NCc4ccc5c(n4)NC(=O)CS5)CC3)c2n1 (centres unmarked) [TCMDC-134313]
RESULT: 46.62

QUERY: Note down % Inhibition recorded for Cc1[nH]c(C)c(-c2ccc(-c3cccc(Cl)c3)nc2)c(=O)c1Br [TCMDC-136160]
RESULT: 67.06

QUERY: Output % Inhibition of CN1CC[C@@H](Oc2cc(CNC(=O)c3ccc(-c4ccc(Cl)cc4)s3)ccc2C(F)(F)F)C1 [TCMDC-136151]
RESULT: -38.31

QUERY: Write down % Inhibition measured for item CCCc1cc(NCC)nc(Nc2ccc(F)cc2)n1 [TCMDC-134011]
RESULT: 18.21
